Target: Focal adhesion kinase 1 (Homo sapiens) (UniProt Q05397)
Sequence (Q05397 whole entry, looked up): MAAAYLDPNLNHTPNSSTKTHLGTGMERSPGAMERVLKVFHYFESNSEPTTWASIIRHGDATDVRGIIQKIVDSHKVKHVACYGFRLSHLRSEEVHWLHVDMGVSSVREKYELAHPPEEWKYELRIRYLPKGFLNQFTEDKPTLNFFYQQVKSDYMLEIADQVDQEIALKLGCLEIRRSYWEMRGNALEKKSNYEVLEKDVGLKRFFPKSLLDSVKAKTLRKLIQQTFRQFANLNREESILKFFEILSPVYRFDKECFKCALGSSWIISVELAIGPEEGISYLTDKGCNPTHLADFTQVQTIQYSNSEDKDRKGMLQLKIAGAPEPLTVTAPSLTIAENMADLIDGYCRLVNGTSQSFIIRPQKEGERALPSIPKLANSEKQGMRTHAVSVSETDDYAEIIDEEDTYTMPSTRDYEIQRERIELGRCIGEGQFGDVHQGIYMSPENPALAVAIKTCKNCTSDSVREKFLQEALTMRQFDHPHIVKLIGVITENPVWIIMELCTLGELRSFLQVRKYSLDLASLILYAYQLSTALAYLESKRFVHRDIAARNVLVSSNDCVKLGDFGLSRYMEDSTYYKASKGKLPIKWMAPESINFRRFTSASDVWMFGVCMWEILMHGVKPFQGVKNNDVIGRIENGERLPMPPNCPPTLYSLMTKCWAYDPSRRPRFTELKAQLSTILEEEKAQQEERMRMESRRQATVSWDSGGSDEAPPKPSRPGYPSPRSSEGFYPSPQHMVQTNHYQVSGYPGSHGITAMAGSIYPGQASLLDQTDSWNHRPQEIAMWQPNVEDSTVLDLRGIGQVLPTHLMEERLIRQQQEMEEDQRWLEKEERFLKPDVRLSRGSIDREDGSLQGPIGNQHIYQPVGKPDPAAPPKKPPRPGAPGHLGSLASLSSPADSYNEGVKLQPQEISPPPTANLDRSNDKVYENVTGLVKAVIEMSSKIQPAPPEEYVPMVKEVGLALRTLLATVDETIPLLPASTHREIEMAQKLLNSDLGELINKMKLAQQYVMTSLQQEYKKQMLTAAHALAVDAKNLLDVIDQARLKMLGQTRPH
Assay: small-molecule microarray binders of FAK, primary screen, biochemical, 635/667 nm fluorescence, BSA, DTT (AID 1130);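 further: composite of spot emission at 667 nm and signal to noise over triplicate slides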
Details: PTK2 binding, 635 nm fluorescence, higher = more signal
experimental readout: composite z-score

Field request: composite z-score | item: Cn1cccc1C(O)C1C=CC2C(=O)NC(=O)C2N1Nc1ccccn1 (stereo not given)
-0.35

Now give it for `COC(=O)[C@H]1COC(c2ccc(OCCCO)cc2)=N1` too.
-0.57

Now give it for `COc1ccc([Si](C)(C)[C@@H]2[C@@H](CCO)O[C@]3(C(=O)N(Cc4ccc(NC(C)=O)cc4)c4ccccc43)[C@H]2C)cc1` too.
0.11

Now give it for `O=C1[C@H]2[C@H]3[C@H](O)[C@H](O)CC(=NOC[C@@H](O)COCc4ccco4)[C@H]3CC[C@H]2C(=O)N1Cc1ccc2c(c1)OCO2` too.
-0.237

Now give it for `CC(CCC(=O)OC[C@H]1O[C@H](C#Cc2ccccc2)C=C[C@@H]1Oc1ccc(C)cc1)=NOC[C@@H](O)[C@H]1O[C@@H]2OC(C)(C)O[C@@H]2[C@H]1O` too.
0.0116

Now give it for `COc1ccc(COC(=O)NN=C2C[C@@H](O)[C@@H](O)[C@@H]3[C@@H]4C(=O)N(c5ccc(F)cc5F)C(=O)[C@@H]4CC[C@@H]23)cc1` too.
0.0141

Now give it for `CCOC(=O)NN=C1C[C@@H](O)[C@@H](O)[C@@H]2[C@@H]3C(=O)N(C(C)(C)C)C(=O)[C@@H]3CC[C@@H]12` too.
0.291

Now give it for `CCOC(=O)CCN1C(=O)[C@H]2[C@H]3[C@H](O)[C@H](O)CC(=NOC[C@@H](O)COCc4ccco4)[C@@H]3CC[C@H]2C1=O` too.
0.144

Now give it for CCOc1ccc(N2C(=O)/C(=C/C=C/c3ccccc3OC)S(=O)(=O)C2c2cccc([N+](=O)[O-])c2)cc1 (stereo not given) too.
0.0604

Now give it for `COCCCNC(=O)[C@@]1(C)c2ccccc2C(=O)N(Cc2ccc(OC(F)(F)F)cc2)[C@H]1c1ccc(CO)cc1` too.
-0.253

Now give it for `CCCCCCc1nc(CCCc2cc3c(c(CCCCCC)n2)[Si](C(C)C)(C(C)C)O[C@H]3c2ccccc2)cc2c1[Si](C(C)C)(C(C)C)O[C@H]2c1ccccc1` too.
-0.43

Now give it for `COC(=O)[C@@H]1CC[C@H](C)[C@@H](c2ccc(C)cc2)N1C(=O)c1ccc(C=NOC[C@@H](O)COCc2ccco2)cc1` too.
-0.574

Now give it for `COC(=O)CC=C[C@@H](C)[C@@H](C=NO[C@H](C)c1cn([C@@H]2COC[C@H]2O)nn1)OC` too.
-0.0208

Now give it for CCc1cc2c(nc1CC)CCN(CCC(C)=NOC(C)CN1CCCc3nc(C)c(C)cc31)C2 (stereo not given) too.
0.63

Now give it for `O=C1c2ccccc2[C@@]2(Cc3ccccc3N(C3CC3)C2=O)[C@H](c2ccc(CO)cc2)N1Cc1ccccc1C(F)(F)F` too.
0.13

Data provenance: PubChem BioAssay
